# test name: Metabolic stability in human hepatic microsome
# Assay type: in vitro ADME
# condition details: microsomes, pH 7.4; human hepatic microsome, NADPH(+); read-out: CL NADPH(+)
Starred links: 1 amine or outer side, 2 acyl side, 3 side chain; linkers in the order of their positions; H or OH if unused. Positions of bridges follow the written chain, without caps; N, C: chain ends. Non-standard residues stand in square brackets, D forms with d. Residues, ends and D or L forms follow the SMILES beside them. *: point of attachment. NMePhe(3-Cl) = CN[C@@H](Cc1cccc(Cl)c1)C(=O)O; NEtPhe = CCN[C@@H](Cc1ccccc1)C(=O)O; NMeF = CN[C@@H](Cc1ccccc1)C(=O)O; NMeGABA = CN(CCCC(=O)[*:2])[*:1]; NMeβAla = CN(CCC(=O)[*:2])[*:1]; NMeL = CN[C@@H](CC(C)C)C(=O)O; NMeV = CN[C@H](C(=O)O)C(C)C; NMeA = CN[C@@H](C)C(=O)O; Piperidide = C1CCN(*)CC1; dNMeA = CN[C@H](C)C(=O)O; β3hA = C[C@H](N)CC(=O)O; Sar = CNCC(=O)O; tBu = CC(C)(C)*
quantity measured: microsomal CLint at 1 uM (µL/min/mg)
Numbers only; they are read as µL/min/mg.

The cases that follow already have their microsomal CLint at 1 uM on record.
{"compound": "CC[C@H](C)[C@@H]1NC(=O)[C@H](CC(C)C)N(C)C(=O)[C@H]([C@@H](C)O)NC(=O)[C@H](CC(C)C)N(C)C(=O)[C@H](C(C)C)NC(=O)[C@H](Cc2ccccc2)N(C)C(=O)CCN(C)C(=O)C[C@@H](C(=O)N2CCC[C@H]2C(=O)N[C@H](C(=O)N(C)[C@@H](Cc2cccc(Cl)c2)C(=O)N(C)[C@@H](Cc2ccccc2)C(=O)N[C@H](C(=O)N2CCCCC2)[C@@H](C)CC)C(C)C)NC1=O [DP-926] ([NMeβAla][NMeF]V[NMeL]T[NMeL]IDPV[NMePhe(3-Cl)][NMeF]I-Piperidide; lactam N-8)", "scale unit": "µL/min/mg", "microsomal CLint at 1 uM": 53}
{"compound": "CC(C)C[C@H]1C(=O)N(C)[C@@H](C(C)C)C(=O)N[C@@H](Cc2ccccc2)C(=O)N[C@H](C(=O)N(C)[C@@H](Cc2ccccc2)C(=O)N[C@@H](C)C(=O)N2CCCCC2)CC(=O)N(C)CCCC(=O)N[C@@H](C(C)C)C(=O)N(C)[C@@H](CC(C)C)C(=O)N[C@@H]([C@@H](C)O)C(=O)N(C)[C@@H](Cc2ccccc2)C(=O)NCC(=O)N1C [DP-372] ([NMeGABA]V[NMeL]T[NMeF]G[NMeL][NMeV]FD[NMeF]A-Piperidide; lactam N-10)", "scale unit": "µL/min/mg", "microsomal CLint at 1 uM": 78}
{"compound": "CCN1C(=O)[C@H](CC(C)C)N(C)C(=O)[C@H](CC(C)C)NC(=O)[C@@H](C)N(C)C(=O)C[C@@H](C(=O)N2CCCCC2)NC(=O)[C@H](CC(C)C)N(C)C(=O)CN(C)C(=O)[C@H]([C@@H](C)O)NC(=O)[C@H](CC(C)C)N(C)C(=O)[C@H](Cc2ccccc2)N(C)C(=O)[C@H](C)NC(=O)[C@@H]1Cc1ccccc1 [DP-636] ([dNMeA]L[NMeL][NEtPhe]A[NMeF][NMeL]T[Sar][NMeL]D-Piperidide; lactam N-11)", "scale unit": "µL/min/mg", "microsomal CLint at 1 uM": 73}
{"compound": "CC(C)C[C@@H]1NC(=O)[C@H](CC(C)C)N(C)C(=O)[C@H](Cc2ccccc2)N(C)C(=O)[C@@H](C)N(C)C(=O)C[C@@H](C(=O)N2CCCCC2)NC(=O)[C@H](Cc2ccccc2)N(C)C(=O)[C@H](C)N(C)C(=O)[C@H](C)NC(=O)CN(C)C(=O)[C@H](C)N(C)C(=O)[C@H]([C@@H](C)O)NC(=O)[C@H](C(C)C)N(C)C1=O [DP-466] ([dNMeA][NMeF][NMeL]L[NMeV]T[NMeA][Sar]A[NMeA][NMeF]D-Piperidide; lactam N-12)", "scale unit": "µL/min/mg", "microsomal CLint at 1 uM": 17}

Lab note: next compound to report on.
Recorded microsomal CLint at 1 uM (compound CC(C)C[C@H]1C(=O)N[C@@H](COC(C)(C)C)C(=O)N[C@@H](C)CC(=O)N[C@H](C)C(=O)N(C)[C@@H](C)C(=O)N(C)[C@@H](Cc2ccccc2)C(=O)N(C)[C@@H](C)C(=O)N[C@@H]([C@@H](C)O)C(=O)N(C)[C@@H](C)C(=O)N1C [DP-786] (cyclo([NMeA][NMeF][NMeA]T[NMeA][NMeL]S(tBu)[β3hA][dA])) ): 14
